test-protocol: Antioxidant activity assessed as DPPH radical scavenging activity at 10^-3 M relative to control
Type: functional
Each entry gets not fulfilled if its Activity stays under 20%, and fulfilled if its Activity is 20% or above.

Previously resolved entries follow.
{"compound": "NS(=O)(=O)c1ccc(-n2nc(-c3cccs3)cc2-c2cnn(-c3ccccc3)c2)cc1", "assigned-class": "not fulfilled"}
{"compound": "O=C(Nc1ccccc1)NS(=O)(=O)c1ccc(N2N=C(c3ccco3)CC2c2cnn(-c3ccccc3)c2)cc1 (stereo unspecified)", "assigned-class": "fulfilled"}
{"compound": "NS(=O)(=O)c1ccc(N2N=C(c3cccs3)CC2c2cnn(-c3ccccc3)c2)cc1 (stereo unspecified)", "assigned-class": "fulfilled"}
{"compound": "O=C(Nc1ccc(Cl)cc1)NS(=O)(=O)c1ccc(N2N=C(c3ccco3)CC2c2cnn(-c3ccccc3)c2)cc1 (stereo unspecified)", "assigned-class": "not fulfilled"}
{"compound": "O=S(=O)(NC(=S)Nc1ccc(F)cc1)c1ccc(N2N=C(c3ccco3)CC2c2cnn(-c3ccccc3)c2)cc1 (stereo unspecified)", "assigned-class": "fulfilled"}

Moving on to another compound below.
INPUT: Hi team, for NS(=O)(=O)c1ccc(N2N=C(c3ccco3)CC2c2cnn(-c3ccccc3)c2)cc1 (stereo unspecified) , is the recorded Activity at or above 20%?
OUTPUT: fulfilled

* * *

test-protocol: Antioxidant activity assessed as inhibition of lipid peroxidation relative to control
Assay type: functional
conditions: dose or concentration not given here
Rule: 1 (yes) for inhibition not less than 70%, 0 (no) for anything less.

Example entries and their recorded answers appear below.
{"molecule": "Cc1ccc(-n2nc(-c3ccccc3)cc2Cn2cnc3c(N4CCCC4)ncnc32)cc1", "assigned-class": "1 (yes)"}
{"molecule": "Cc1ccc(N2N=C(c3ccccc3)CC2Cn2cnc3c(N4CCOCC4)ncnc32)cc1 (stereo not given)", "assigned-class": "0 (no)"}
{"molecule": "Cc1ccc(-n2nc(-c3ccccc3)cc2Cn2cnc3c(N4CCOCC4)ncnc32)cc1", "assigned-class": "1 (yes)"}

Okay, next one:
INPUT: Answer whether inhibition of c1ccc(C2=NN(c3ccccc3)C(Cn3cnc4c(N5CCCC5)ncnc43)C2)cc1 (stereo not given) is greater than or equal to 70%.
OUTPUT: 1 (yes)

* * *

test-protocol: Antioxidant activity assessed as DPPH radical scavenging activity at 10 ug/ml after 20 mins by UV absorbance method relative to control
Format: functional
Note to self: use satisfied only for Activity readings below 50%; a reading exactly at 50% still gets not satisfied.

Consider the worked cases shown below.
{"compound": "O=C(c1ccccc1)N1N=C(Cn2c3ccccc3c3nc4cc(Cc5ccc6nc(-c7ccccc7)c(-c7ccccc7)nc6c5)ccc4nc32)CC1c1ccc(F)cc1 (stereo unspecified)", "assigned-class": "satisfied"}
{"compound": "O=C(c1ccc(Cl)cc1)N1N=C(Cn2c3ccccc3c3nc4cc(Cc5ccc6nc(-c7ccccc7)c(-c7ccccc7)nc6c5)ccc4nc32)CC1c1ccc(Cl)cc1 (stereo unspecified)", "assigned-class": "not satisfied"}
{"compound": "COc1ccc(C2CC(Cn3c4ccccc4c4nc5cc(Cc6ccc7nc(-c8ccccc8)c(-c8ccccc8)nc7c6)ccc5nc43)=NN2C(=O)c2ccc(Cl)cc2)cc1 (stereo unspecified)", "assigned-class": "not satisfied"}
{"compound": "O=C1O[C@H]([C@@H](O)CO)C(O)=C1O", "assigned-class": "satisfied"}

Shifting focus to the compound that follows.
INPUT: # check: Activity < 50% for O=C(c1ccc(Cl)cc1)N1N=C(Cn2c3ccccc3c3nc4cc(Cc5ccc6nc(-c7ccccc7)c(-c7ccccc7)nc6c5)ccc4nc32)CC1c1ccc(F)cc1 (stereo unspecified)
OUTPUT: satisfied

Where do these numbers come from? They come from ChEMBL document CHEMBL4270556.
